Origin of the recorded values: paper PMC8259857

# System: susceptible H37Rv MTB strain (ATCC 25177)
# Assay protocol: Resazurin Microplate Assay (REMA), whole-cell anti-tubercular activity against H37Rv
# Type: cell-based, Mycobacterium tuberculosis
# Applied conditions: Mycobacterium tuberculosis, read-out: MIC H37Rv
Overview of recorded MIC for various compounds

Solved entries (count: 4):
>  <Compound>
NNC(=O)c1ccncc1 [Isoniazid, reference compound]

>  <MIC>
< 0.2 µg/mL

$$$$
>  <Compound>
CO[C@H]1/C=C/O[C@@]2(C)Oc3c(C)c(O)c4c(O)c(c(/C=N/N5CCN(C)CC5)c(O)c4c3C2=O)NC(=O)/C(C)=C\C=C\[C@H](C)[C@H](O)[C@@H](C)[C@@H](O)[C@@H](C)[C@H](OC(C)=O)[C@@H]1C [Rifampicin, reference compound]

>  <MIC>
< 1 µg/mL

$$$$
>  <Compound>
CCOC(=O)c1c(C)c(C(=O)c2ccc(Cl)cc2)n2ccccc12 [Compound 3b]

>  <MIC>
32 µg/mL

$$$$
>  <Compound>
CCOC(=O)c1cc(C(=O)c2ccc(Br)cc2)n2ccccc12 [Compound 2c]

>  <MIC>
32 µg/mL

$$$$

**Q:** So what MIC did CCOC(=O)c1c(C(=O)OCC)c2ccccn2c1C(=O)c1ccc(Cl)cc1 [Compound 4b] get with susceptible H37Rv MTB strain (ATCC 25177)?
**A:** 8 µg/mL
